Data provenance is the supplement of paper PMC11061612.

- System: SW780 (Bladder Carcinoma);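 note: after 72 h of two-drug dosing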
- TEST PROTOCOL: Bliss excess, mean over the matrix (fraction); higher = more synergy

COMPOUND	Bliss excess
C=CCn1c(=O)c2cnc(Nc3ccc(N4CCN(C)CC4)cc3)nc2n1-c1cccc(C(C)(C)O)n1 [AZD1775] + C1CN(CCC1(C(=O)N[C@@H](CCO)C2=CC=C(C=C2)Cl)N)C3=NC=NC4=C3C=CN4 [Capivasertib] (first compound max 3 µM, partner max 3 µM)	0.0017
CN(C)CCCOc1ccc(-c2ccc3ncc4c(c3c2)n(C2CCOCC2)c(=O)n4C)cn1 [AZD0156] + C[C@@H]1COCCN1C2=NC(=NC(=C2)C3(CC3)[S@](=N)(=O)C)C4=C5C=CNC5=NC=C4 [AZD6738] (first compound max 1 µM, 7x7, partner max 10 µM)	-0.0372
Cc1c2c(nn1C)CSCc1cc(n(C)n1)CSc1cc(c3ccccc3c1)OCCCc1c(C(=O)O)n(C)c3c-2c(Cl)ccc13 [AZD5991] + C[C@@H](Nc1cc(F)cc(F)c1)c1cc(C(=O)N(C)C)cc2c(=O)cc(N3CCOCC3)oc12 [AZD8186] (first compound max 1 µM, 7x7, partner max 3 µM)	0.0157
Cc1c2c(nn1C)CSCc1cc(n(C)n1)CSc1cc(c3ccccc3c1)OCCCc1c(C(=O)O)n(C)c3c-2c(Cl)ccc13 [AZD5991] + Cc1cc2ncnn2cc1Nc1ncc2c(n1)n(C1CCOCC1)c(=O)n2C [AZD7648] (first compound max 1 µM, 7x7, partner max 10 µM)	-0.0193
Cc1cc2ncnn2cc1Nc1ncc2c(n1)n(C1CCOCC1)c(=O)n2C [AZD7648] + C[C@@H]1COCCN1C2=NC(=NC(=C2)C3(CC3)[S@](=N)(=O)C)C4=C5C=CNC5=NC=C4 [AZD6738] (first compound max 10 µM, 7x7, partner max 10 µM)	0.0476
C=CCn1c(=O)c2cnc(Nc3ccc(N4CCN(C)CC4)cc3)nc2n1-c1cccc(C(C)(C)O)n1 [AZD1775] + C[C@@H]1COCCN1C2=NC(=NC(=C2)C3(CC3)[S@](=N)(=O)C)C4=C5C=CNC5=NC=C4 [AZD6738] (first compound max 1 µM, partner max 10 µM)	-0.0092
CC(=O)c1c(C)c2cnc(Nc3ccc(N4CCNCC4)cn3)nc2n(C2CCCC2)c1=O [Palbociclib] + CN(CC[C@H](CSC1=CC=CC=C1)NC2=C(C=C(C=C2)S(=O)(=O)NC(=O)C3=CC=C(C=C3)N4CCC(CC4)[C@H](C5=CC=CC=C5C6=CC=C(C=C6)Cl)O)S(=O)(=O)C(F)(F)F)CCO [AZD4320] (first compound max 10 µM, 7x7, partner max 1 µM)	-0.136
Cc1c2c(nn1C)CSCc1cc(n(C)n1)CSc1cc(c3ccccc3c1)OCCCc1c(C(=O)O)n(C)c3c-2c(Cl)ccc13 [AZD5991] + CC1(C)CCC(CN2CCN(c3ccc(C(=O)NS(=O)(=O)c4ccc(NCC5CCOCC5)c([N+](=O)[O-])c4)c(Oc4cnc5[nH]ccc5c4)c3)CC2)=C(c2ccc(Cl)cc2)C1 [Venetoclax] (first compound max 1 µM, 7x7, partner max 1 µM)	0.0215
CCN(CCO)CCCOc1ccc2c(Nc3cc(CC(=O)Nc4cccc(F)c4)[nH]n3)ncnc2c1 [AZD2811] + O=C(c1cc(Cc2n[nH]c(=O)c3ccccc23)ccc1F)N1CCN(C(=O)C2CC2)CC1 [Olaparib] (first compound max 1 µM, 7x7, partner max 10 µM)	0.02
CN(CCO)CC[C@H](CSc1ccccc1)Nc1ccc(S(=O)(=O)NC(=O)c2ccc(N3CCC([C@@H](O)c4ccccc4-c4ccc(Cl)cc4)CC3)cc2)cc1S(=O)(=O)C(F)(F)F [AZD4320] + C[C@@H]1COCCN1C2=NC(=NC(=C2)C3(CC3)[S@](=N)(=O)C)C4=C5C=CNC5=NC=C4 [AZD6738] (first compound max 1 µM, 7x7, partner max 10 µM)	-0.0478
CCN(CCO)CCCOc1ccc2c(Nc3cc(CC(=O)Nc4cccc(F)c4)[nH]n3)ncnc2c1 [AZD2811] + C=CCn1c(=O)c2cnc(Nc3ccc(N4CCN(C)CC4)cc3)nc2n1-c1cccc(C(C)(C)O)n1 [AZD1775] (first compound max 1 µM, partner max 1 µM)	0.0194
C=CCn1c(=O)c2cnc(Nc3ccc(N4CCN(C)CC4)cc3)nc2n1-c1cccc(C(C)(C)O)n1 [AZD1775] + O=C(c1cc(Cc2n[nH]c(=O)c3ccccc23)ccc1F)N1CCN(C(=O)C2CC2)CC1 [Olaparib] (first compound max 1 µM, partner max 10 µM)	-0.0262
CC1(C)CCC(CN2CCN(c3ccc(C(=O)NS(=O)(=O)c4ccc(NCC5CCOCC5)c([N+](=O)[O-])c4)c(Oc4cnc5[nH]ccc5c4)c3)CC2)=C(c2ccc(Cl)cc2)C1 [Venetoclax] + Cn1cnc2c(F)c(Nc3ccc(Br)cc3Cl)c(C(=O)NOCCO)cc21 [Selumetinib] (first compound max 1 µM, 7x7, partner max 3 µM)	-0.0367
